tgt: ανβ3 (the vitronectin receptor) (Homo sapiens, UniProt P05106+P06756)
Construct: Human placenta or human platelet ανβ3 (0.1-0.3 mg/mL) in buffer T
Sequence (P06756 31-889 limits assumed): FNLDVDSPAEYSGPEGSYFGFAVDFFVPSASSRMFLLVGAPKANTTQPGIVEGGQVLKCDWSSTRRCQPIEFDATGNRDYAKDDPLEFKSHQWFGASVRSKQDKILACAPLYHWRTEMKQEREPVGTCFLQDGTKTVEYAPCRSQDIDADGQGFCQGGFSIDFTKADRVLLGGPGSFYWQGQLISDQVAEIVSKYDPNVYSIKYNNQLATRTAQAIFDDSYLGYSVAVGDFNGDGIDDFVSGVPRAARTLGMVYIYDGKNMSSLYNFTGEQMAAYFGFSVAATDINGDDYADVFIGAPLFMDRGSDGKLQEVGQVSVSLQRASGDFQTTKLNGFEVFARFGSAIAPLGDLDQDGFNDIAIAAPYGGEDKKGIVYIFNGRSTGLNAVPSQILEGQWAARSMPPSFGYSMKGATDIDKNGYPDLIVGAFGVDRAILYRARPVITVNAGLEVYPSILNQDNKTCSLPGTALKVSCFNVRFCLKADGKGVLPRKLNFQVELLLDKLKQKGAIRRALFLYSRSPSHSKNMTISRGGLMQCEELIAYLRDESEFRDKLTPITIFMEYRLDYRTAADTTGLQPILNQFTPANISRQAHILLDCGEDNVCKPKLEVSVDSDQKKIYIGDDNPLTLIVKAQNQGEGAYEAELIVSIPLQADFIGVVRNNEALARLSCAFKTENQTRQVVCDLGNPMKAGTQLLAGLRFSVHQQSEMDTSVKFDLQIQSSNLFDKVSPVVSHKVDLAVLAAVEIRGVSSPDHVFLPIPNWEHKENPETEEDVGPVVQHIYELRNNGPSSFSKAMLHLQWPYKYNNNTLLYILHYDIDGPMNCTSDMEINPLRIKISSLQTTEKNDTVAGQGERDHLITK
Sequence (P06756 891-1048 partner limits assumed): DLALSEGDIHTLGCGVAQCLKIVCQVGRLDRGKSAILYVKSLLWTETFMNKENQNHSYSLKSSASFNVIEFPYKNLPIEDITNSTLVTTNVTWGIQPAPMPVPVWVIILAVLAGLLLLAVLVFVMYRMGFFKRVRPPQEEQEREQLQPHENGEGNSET
Sequence (P05106 27-788): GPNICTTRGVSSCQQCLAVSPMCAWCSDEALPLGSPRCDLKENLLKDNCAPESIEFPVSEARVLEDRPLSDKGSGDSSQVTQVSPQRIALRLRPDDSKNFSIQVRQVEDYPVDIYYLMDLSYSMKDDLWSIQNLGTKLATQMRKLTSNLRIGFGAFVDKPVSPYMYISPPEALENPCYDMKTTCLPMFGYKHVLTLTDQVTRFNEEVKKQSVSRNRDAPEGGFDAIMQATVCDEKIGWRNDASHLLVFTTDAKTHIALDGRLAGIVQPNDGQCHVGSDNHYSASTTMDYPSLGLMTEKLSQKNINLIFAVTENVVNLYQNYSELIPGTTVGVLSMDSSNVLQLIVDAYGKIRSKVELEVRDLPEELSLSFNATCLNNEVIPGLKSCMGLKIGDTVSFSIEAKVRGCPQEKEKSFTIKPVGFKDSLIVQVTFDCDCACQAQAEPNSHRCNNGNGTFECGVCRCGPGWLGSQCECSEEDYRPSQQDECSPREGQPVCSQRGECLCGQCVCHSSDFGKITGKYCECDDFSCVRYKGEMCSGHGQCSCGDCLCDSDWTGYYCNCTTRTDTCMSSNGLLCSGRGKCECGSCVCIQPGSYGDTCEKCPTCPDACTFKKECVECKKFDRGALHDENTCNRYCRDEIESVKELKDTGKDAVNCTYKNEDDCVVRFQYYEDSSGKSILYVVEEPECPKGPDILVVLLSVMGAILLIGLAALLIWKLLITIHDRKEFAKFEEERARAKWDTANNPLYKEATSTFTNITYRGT
experiment: Solid-Phase [3H]-SK&F-107260 Binding to ανβ3 (inhibition of vitronectin binding)
measurement context: read-out: inhibits [3H]-SK&F-107260 binding to ανβ3 at a concentration

compound smiles	IC50
Cc1ccnc(NCCCOc2ccc3c(c2)CN(Cc2ccc(C(F)(F)F)cc2)C(=O)[C@H](CC(=O)O)C3)c1	~3 nM
